Cited source for all entries: paper PMC9415161

method.description: In vivo pharmacokinetics after tail vein injection
condition.details: male, Sprague-Dawley, rat, plasma; rats, IV 1 mg/kg, n = 3
Method: The in vivo profiling of free 053, 053-F127 NCs, and 053-PPP NC micelles were evaluated and compared using PK tests in male Sprague Dawley rats with individual weights of ~200 g (from the Laboratory Animal Center of Anhui Medical University, Hefei, China), approved by the Animal Ethics Committee of Hefei Institutes of Physical Science, Chinese Academy of Sciences, Hefei, China (approval code: DW-2019-20). The rats were housed in an air-conditioned room at 23 ± 2 °C and humidity of ~50%. […]
readout.name: Cmax (ng/mL)
Give bare numbers, in ng/mL.

Give the value of Cmax reported for the following: CNc1ncncc1C(=O)Nc1cc(NC(=O)c2cccc(C(F)(F)F)c2)ccc1C [Free 053]
364

###

method.description: In vivo pharmacokinetics after tail vein injection
condition.details: male, Sprague-Dawley, rat, plasma; rats, IV 1 mg/kg, n = 3
readout.name: half-life (h)
Give bare numbers, in h.

Give the value of half-life reported for the following: CNc1ncncc1C(=O)Nc1cc(NC(=O)c2cccc(C(F)(F)F)c2)ccc1C [Free 053]
2.02

###

method.description: In vivo pharmacokinetics after tail vein injection
condition.details: male, Sprague-Dawley, rat, plasma; rats, IV 1 mg/kg, n = 3
readout.name: C0 (ng/mL)
Numbers only, in ng/mL.

Give the value of C0 reported for the following: CNc1ncncc1C(=O)Nc1cc(NC(=O)c2cccc(C(F)(F)F)c2)ccc1C [Free 053]
555

###

method.description: In vivo pharmacokinetics after tail vein injection
condition.details: male, Sprague-Dawley, rat, plasma; rats, IV 1 mg/kg, n = 3
readout.name: AUC(0-inf) (ng·h/mL)
One number for each entry, in ng·h/mL.

Give the value of AUC(0-inf) reported for the following: CNc1ncncc1C(=O)Nc1cc(NC(=O)c2cccc(C(F)(F)F)c2)ccc1C [Free 053]
509

###

method.description: In vivo pharmacokinetics after tail vein injection
condition.details: male, Sprague-Dawley, rat, plasma; rats, IV 1 mg/kg, n = 3
readout.name: clearance
Mention the unit after the number when you answer.

Give the value of clearance reported for the following: CNc1ncncc1C(=O)Nc1cc(NC(=O)c2cccc(C(F)(F)F)c2)ccc1C [Free 053]
34.3 mL/min/kg

###

method.description: In vivo pharmacokinetics after tail vein injection
condition.details: male, Sprague-Dawley, rat, plasma; rats, IV 1 mg/kg, n = 3; read-out: MRT0–∞
readout.name: MRT inf (h)
Numbers only, in h.

Give the value of MRT inf reported for the following: CNc1ncncc1C(=O)Nc1cc(NC(=O)c2cccc(C(F)(F)F)c2)ccc1C [Free 053]
2.78
